- Measured On: MDMX (23–111) (Homo sapiens)
- Construct: Thermal shift data for MDMX (23–111) showing a 7 degree stabilization
- Sequence (O15151 23-111): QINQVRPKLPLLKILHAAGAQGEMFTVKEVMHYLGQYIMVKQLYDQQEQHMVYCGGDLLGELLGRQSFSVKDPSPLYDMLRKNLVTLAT
- Assay Notes: thermal stability of MDMX by hydrophobic dye binding (thermal shift)
- Measurement Parameters: minimal time dependency (5 min vs 1 h); read-out: apparent EC50 of melting point stabilization
- Method: The ITD measurements were performed with a RT-PCR instrument (Applied Biosystems 7900HT) equipped with a 384-well probe using SYBR detection (excitation 495/emission 537). […] The data was exported and evaluated using a custom data processing algorithm coded in Pipeline Pilot (Scitegic). Apparent melting temperatures were calculated by measuring the temperature at which the observed fluorescence signal was halfway between the baseline and the maximum. […]
pEC50: −log10 of the molar value.
Measured Quantity: pEC50

Entry CCOc1cc(/C=C2\C(=O)N(c3ccccc3)N=C2C)cc(Cl)c1OCC(=O)OC : reported pEC50 = ?
~6.00

###

- Assay Notes: solubility assay (µSOL Evolution, pION)
- Format: physicochemical
- Measurement Parameters: system solution buffer (SSB, pION), pH 7.4, aqueous buffer, kinetic from dmso stock
Measured Quantity: solubility at 18 h

Recorded solubility at 18 h of CCOc1cc(/C=C2\C(=O)N(c3ccccc3)N=C2C)cc(Cl)c1OCC(=O)OC , please.
12 µM

###

- Measured On: hMDMX (GST-tagged, a.a. 1–185) (Homo sapiens, UniProt O15151)
- Sequence (O15151 1-185): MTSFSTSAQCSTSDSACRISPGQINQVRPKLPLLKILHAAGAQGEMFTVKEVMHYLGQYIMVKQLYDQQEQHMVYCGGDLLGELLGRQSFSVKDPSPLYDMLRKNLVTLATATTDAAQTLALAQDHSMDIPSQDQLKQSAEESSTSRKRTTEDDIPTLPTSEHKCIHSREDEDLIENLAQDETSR
Measured Quantity: IC50
Write the numeric value and follow it with the unit.

Quick one: IC50 for CCOc1cc(/C=C2\C(=O)N(c3ccccc3)N=C2C)cc(Cl)c1OCC(=O)OC ?
3 µM

###

- Measured On: Mdm2 (Homo sapiens)
- Sequence (Q00987 whole entry): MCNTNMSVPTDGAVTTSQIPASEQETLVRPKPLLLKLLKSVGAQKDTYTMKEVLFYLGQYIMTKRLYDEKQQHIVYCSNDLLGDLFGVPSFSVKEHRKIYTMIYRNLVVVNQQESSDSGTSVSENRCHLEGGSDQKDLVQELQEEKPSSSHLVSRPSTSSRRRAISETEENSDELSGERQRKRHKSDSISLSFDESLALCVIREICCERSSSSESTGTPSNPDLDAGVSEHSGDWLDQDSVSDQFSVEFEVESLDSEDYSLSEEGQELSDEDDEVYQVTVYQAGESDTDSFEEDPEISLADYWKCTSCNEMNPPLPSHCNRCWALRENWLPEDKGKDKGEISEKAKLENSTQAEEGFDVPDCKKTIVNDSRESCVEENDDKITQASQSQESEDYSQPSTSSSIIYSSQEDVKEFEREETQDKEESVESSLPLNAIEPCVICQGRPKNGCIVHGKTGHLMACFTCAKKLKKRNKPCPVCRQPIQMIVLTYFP
- Assay Notes: fluorescence polarization p53 peptide exclusion assay, Mdm2
- Measurement Parameters: ND = compound does not noticeably block interaction with p53 peptide
Measured Quantity: pKi
Answers are plain numbers, as −log10 of the molar value.

For the compound CCOc1cc(/C=C2\C(=O)N(c3ccccc3)N=C2C)cc(Cl)c1OCC(=O)OC [compound 1] , what pKi is on record?
5.28
